All values here come from ChEMBL document CHEMBL1132092.

# reported log10(IC50); entries follow
# SYSTEM_NAME: Voltage-dependent N-type calcium channel subunit alpha-1B (Homo sapiens)
# Sequence (Q00975 whole entry): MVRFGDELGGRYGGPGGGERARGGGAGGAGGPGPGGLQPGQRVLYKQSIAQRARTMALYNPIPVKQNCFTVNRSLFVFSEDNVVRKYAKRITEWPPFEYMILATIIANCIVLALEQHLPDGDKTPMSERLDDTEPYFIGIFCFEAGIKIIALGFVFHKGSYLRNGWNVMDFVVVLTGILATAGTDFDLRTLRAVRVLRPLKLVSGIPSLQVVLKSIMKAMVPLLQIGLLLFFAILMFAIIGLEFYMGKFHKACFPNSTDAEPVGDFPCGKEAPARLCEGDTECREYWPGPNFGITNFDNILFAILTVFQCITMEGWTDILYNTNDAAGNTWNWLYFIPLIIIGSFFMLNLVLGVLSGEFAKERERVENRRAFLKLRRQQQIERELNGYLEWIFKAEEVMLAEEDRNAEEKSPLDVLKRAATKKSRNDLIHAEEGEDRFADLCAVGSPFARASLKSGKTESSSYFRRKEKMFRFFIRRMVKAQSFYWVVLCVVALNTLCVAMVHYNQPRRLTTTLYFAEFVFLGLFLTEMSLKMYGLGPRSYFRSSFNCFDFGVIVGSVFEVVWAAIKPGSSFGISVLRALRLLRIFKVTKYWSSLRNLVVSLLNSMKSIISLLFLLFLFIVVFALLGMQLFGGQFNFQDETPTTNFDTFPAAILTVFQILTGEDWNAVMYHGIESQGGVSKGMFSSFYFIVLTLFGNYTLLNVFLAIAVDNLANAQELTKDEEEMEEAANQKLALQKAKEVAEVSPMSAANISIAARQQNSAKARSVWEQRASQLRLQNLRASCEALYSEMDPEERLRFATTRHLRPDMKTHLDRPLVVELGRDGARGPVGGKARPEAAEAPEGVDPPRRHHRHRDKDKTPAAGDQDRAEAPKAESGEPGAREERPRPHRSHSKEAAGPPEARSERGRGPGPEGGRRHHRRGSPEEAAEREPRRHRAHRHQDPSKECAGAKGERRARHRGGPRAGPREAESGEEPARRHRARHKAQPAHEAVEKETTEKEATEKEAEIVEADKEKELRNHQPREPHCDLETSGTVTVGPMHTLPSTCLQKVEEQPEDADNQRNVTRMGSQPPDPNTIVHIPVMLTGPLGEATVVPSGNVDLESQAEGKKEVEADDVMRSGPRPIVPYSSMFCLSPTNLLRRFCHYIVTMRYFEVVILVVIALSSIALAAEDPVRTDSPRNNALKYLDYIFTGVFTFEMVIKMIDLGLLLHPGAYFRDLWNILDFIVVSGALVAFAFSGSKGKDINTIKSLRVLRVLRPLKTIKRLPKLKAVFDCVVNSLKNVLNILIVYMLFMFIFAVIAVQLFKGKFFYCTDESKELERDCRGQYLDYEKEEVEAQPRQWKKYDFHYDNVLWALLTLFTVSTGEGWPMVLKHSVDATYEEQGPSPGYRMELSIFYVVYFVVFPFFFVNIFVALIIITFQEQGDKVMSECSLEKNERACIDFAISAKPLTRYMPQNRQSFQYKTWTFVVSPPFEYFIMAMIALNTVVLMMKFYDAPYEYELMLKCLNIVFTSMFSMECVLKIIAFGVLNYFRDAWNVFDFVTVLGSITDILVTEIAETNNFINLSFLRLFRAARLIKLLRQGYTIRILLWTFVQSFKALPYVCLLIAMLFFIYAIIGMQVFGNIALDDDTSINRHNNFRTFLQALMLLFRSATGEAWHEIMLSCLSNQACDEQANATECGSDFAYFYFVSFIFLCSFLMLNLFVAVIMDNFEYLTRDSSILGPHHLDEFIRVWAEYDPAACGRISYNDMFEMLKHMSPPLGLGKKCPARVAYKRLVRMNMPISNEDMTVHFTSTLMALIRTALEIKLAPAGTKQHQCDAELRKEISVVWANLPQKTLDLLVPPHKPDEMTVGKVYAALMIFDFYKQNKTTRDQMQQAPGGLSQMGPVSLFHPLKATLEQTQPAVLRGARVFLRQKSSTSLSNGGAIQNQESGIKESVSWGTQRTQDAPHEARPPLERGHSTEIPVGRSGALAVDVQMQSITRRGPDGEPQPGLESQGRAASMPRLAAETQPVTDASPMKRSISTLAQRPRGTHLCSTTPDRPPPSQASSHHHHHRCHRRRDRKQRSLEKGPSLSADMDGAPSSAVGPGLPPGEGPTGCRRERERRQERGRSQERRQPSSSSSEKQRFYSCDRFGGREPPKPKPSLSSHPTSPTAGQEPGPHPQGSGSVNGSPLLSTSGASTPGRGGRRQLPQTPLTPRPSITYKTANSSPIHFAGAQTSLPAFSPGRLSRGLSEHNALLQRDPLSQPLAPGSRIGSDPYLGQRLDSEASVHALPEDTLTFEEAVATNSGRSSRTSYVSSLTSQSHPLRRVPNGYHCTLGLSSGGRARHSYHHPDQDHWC
# EXPERIMENTAL_DETAILS: Inhibition of N-type Voltage Sensitive Calcium Channel (VSCC) using IMR-32 assay
A difference of one corresponds to tenfold IC50; all values are log10 with IC50 in nM.

Below: 4 compounds and their reported log10(IC50).
Kindly note the recorded log10(IC50) for CC(C)CCN(c1ccc(O)cc1)C1CCN(C(=O)[C@H](CC(C)C)NC(=O)N2CCCCCC2)CC1 , which is 3.04

Kindly note the recorded log10(IC50) for CC(C)CCN(c1ccc(NCc2cnc[nH]2)cc1)C1CCN(C(=O)[C@H](CC(C)C)NC(=O)N2CCCCCC2)CC1 , which is 5.08

Kindly note the recorded log10(IC50) for CC(C)=CCN(c1ccc(CCc2ccccc2)cc1)C1CCN(C(=O)[C@H](CC(C)C)NC(=O)N2CCCCCC2)CC1 , which is 2.83

Kindly note the recorded log10(IC50) for CC(C)=CCN(c1ccccc1)C1CCN(C(=O)[C@H](CC(C)C)NC(=O)N2CCCCCC2)CC1 , which is 3.00

Others:
Kindly note the recorded log10(IC50) for CC(C)=CCN(c1ccc(OCc2ccccc2)cc1)C1CCN(C(=O)[C@H](CC(C)C)NC(=O)N2CCCCCC2)CC1 , which is 2.53

Kindly note the recorded log10(IC50) for CC(C)CCN(c1ccc(OCc2ccccc2)cc1)C1CCN(C(=O)[C@H](CC(C)C)NC(=O)N2CCCCCC2)CC1 , which is 2.28
